Assay: soluble on expression in E. coli; label from the status in PepcDB or PDB records
Endpoint Label: soluble on expression in E. coli

{"columns": ["Seq String", "Result"],
 "data": [
  ["MTEKKLLMGNEAIAFGAIEAGVQVVTGYPGTPSTEALETIARHAEKCGVYAEWSSNEKVALETAAGAAYSGAKALVTMKQVGLNVASDPLMSLTYIGVKGALVLLVADDPGPHSSQTEQDTRSFGHFANIPVLDPASPQEAYELTKLAFEISHQFEVPVILRTTTRVSHSSGDVELLNSEPSPVEAFC", "not soluble"],
  ["MSLKQISIRDVAALAGVSVGSASRVINGAANVTPDVRERVDRAIAALRYRPNHAAQSLRSRTSKTIGCMFSDVANPLYARAFRALEEHFRREGYMLLLANGLNDAEREIDIIQTFQLRGMDGVILAPGNERHPGVLDAVRRLSMPAVIYDRDLAVDADAVLFDHVAGVKAAIHHLVELGHTRIALALWQVKSRPVRRRIEGYKAAFKAAGLPVPDLILQEPTPTSSAFDDVTRLLQLPDPPTAFLAQGTHTLTSTLRAIAKQGLRVPEDVSVIGIGDTDFAQTYDPPLTVLRTPTDEVAAHAVEMLLSRLAAKGDASLSPRKALIQFDLILRESCAPVAREGHHHHHH", "not soluble"],
  ["MGSDKIHHHHHHMDLSSNRLAGKSILITRPLHQAGGLATWVRELGGEPWLFPVLEISDSENKQPLLDLIARLDEFDLAVFVSPNAVEKVIPLVQVSHSWPRHVLVATVGKGSARVLERYGITNVIVPEEGSDSEALLRMPQFQVMQGRHVVIFRGNDGRRLLGDTLRERGASVEYIECYRRHKPEADPLPLLKHWRDDGIQAVIISSSEGLDNLFDMIGETGQQLLKATPVFTAHERIERKARELGIRKIYRTLLGDEGTVQGLLEYFEKM", "not soluble"]
]}
